B1: library; a variant is named by its letters at N, in order (parent)
chain: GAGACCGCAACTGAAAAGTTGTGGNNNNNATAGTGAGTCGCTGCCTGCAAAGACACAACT

variants of: B1; test: ligation selection enrichment (abundance after / before one-round selection) (fold); higher = more template-directed ligation activity; details: with T7Psub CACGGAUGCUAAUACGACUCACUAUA; MgCl2 25 mM; 42 °C; 4 h; pH 8.5
assay-readout: ligation selection enrichment
Would you mind answering with just the numeric figure?

Recorded result, TCCAA , ligation selection enrichment: 0.0717

Recorded result, TGTGC , ligation selection enrichment: 0.151

Recorded result, TGTCG , ligation selection enrichment: 0.653

Recorded result, TCGCA , ligation selection enrichment: 0.269

Recorded result, ACGAC , ligation selection enrichment: 1.41

Recorded result, CAATT , ligation selection enrichment: 0.343

Recorded result, ACTTG , ligation selection enrichment: 0.918

Recorded result, CTTAC , ligation selection enrichment: 0.153

Recorded result, TTAGG , ligation selection enrichment: 0.306

Recorded result, CCGCC , ligation selection enrichment: 0.148

Recorded result, CGTCA , ligation selection enrichment: 0.569

Recorded result, TAACG , ligation selection enrichment: 0.867

Recorded result, GCGGT , ligation selection enrichment: 0.186

Recorded result, GTATC , ligation selection enrichment: 0.167

Recorded result, CCCTG , ligation selection enrichment: 0.425

Recorded result, AAGAA , ligation selection enrichment: 0.428

Recorded result, ACGTG , ligation selection enrichment: 0.17

Recorded result, TGGCT , ligation selection enrichment: 0.75

Recorded result, GGAAG , ligation selection enrichment: 0.341

Recorded result, TCTGA , ligation selection enrichment: 0.256

Recorded result, TTCTG , ligation selection enrichment: 0.954

Recorded result, ACAAC , ligation selection enrichment: 0.224

Recorded result, AGTCT , ligation selection enrichment: 0.506

Recorded result, ATTAG , ligation selection enrichment: 1.02

Recorded result, GCCGG , ligation selection enrichment: 0.313

Recorded result, ACTGA , ligation selection enrichment: 0.286

Recorded result, TTAGT , ligation selection enrichment: 0.265

Recorded result, ATAGA , ligation selection enrichment: 0.543

Recorded result, TGAGT , ligation selection enrichment: 0.221

Recorded result, CTAGT , ligation selection enrichment: 0.209

Recorded result, GGAGC , ligation selection enrichment: 0.135

Recorded result, TGCCT , ligation selection enrichment: 0.408

Recorded result, ACGCT , ligation selection enrichment: 0.449

Recorded result, GCCGT , ligation selection enrichment: 0.214

Recorded result, AAAAT , ligation selection enrichment: 0.461

Recorded result, CTACG , ligation selection enrichment: 0.429

Recorded result, GGCCT , ligation selection enrichment: 0.408

Recorded result, CAATG , ligation selection enrichment: 0.249

Recorded result, AATTA , ligation selection enrichment: 0.421

The reported measurements were obtained from the supplement of paper PMC10219994.
